Assay: qHTS for compounds that reverse cellular toxicity of Amyloid beta (A-beta) peptide in yeast: LOPAC Validation Assay (AID 720559)
Conditions: yeast expressing A-beta; series mostly up to 46.1 µM
The source made the active and inactive calls. Calls come from the whole dose curve; as a rule, active = well fitted curve in the direction sought with a large enough effect; inconclusive = small, poorly fitted or top-dose-only effect, or another doubt; inactive = no such curve, though single readings can be large or run the other way.
ENDPOINT: outcome

COMPOUND	RECORDED MEASUREMENT
[Li+]	inactive
N#C/C(=C\c1ccc(O)c(O)c1)C(=O)NCCCNC(=O)/C(C#N)=C/c1ccc(O)c(O)c1	inactive
CCCCCCC(=O)OC1CC(C)(C)NC(C)(C)C1	inactive
O=C(OCCN1CCOCC1)C1(c2ccccc2)CCCCC1	inactive

Per the records, this compound ( `CC(C)(C)c1cc(/C=C(\C#N)C(N)=S)cc(C(C)(C)C)c1O` ) has outcome equal to inactive

Per the records, this compound ( `C=C1C(=O)O[C@@H]2[C@H]3O[C@]3(C)CCC=C(C)CC[C@@H]12` ) has outcome equal to inactive

Per the records, this compound ( `O=C(N[C@@H](Cc1ccccc1)C(=O)CCl)OCc1ccccc1` ) has outcome equal to inactive

Per the records, this compound ( `N#C/C(=C\c1ccc(O)c(O)c1)C(=O)NCCc1ccccc1` ) has outcome equal to inactive

Per the records, this compound ( CC(N)(Cc1ccc(O)c(O)c1)C(=O)O (stereo unspecified) ) has outcome equal to inactive

Per the records, this compound ( O[Si](CCCN1CCCCC1)(c1ccc(F)cc1)C1CCCCC1 (stereo unspecified) ) has outcome equal to inactive

Per the records, this compound ( CN1C2CCC1CC(OC(c1ccccc1)c1ccccc1)C2 (stereo unspecified) ) has outcome equal to inactive

Per the records, this compound ( `CN[C@H](CC(=O)O)C(=O)O` ) has outcome equal to inactive

Per the records, this compound ( `NC1(C(=O)O)CCCCC1` ) has outcome equal to inactive

Per the records, this compound ( `NCCCCN=C(N)N` ) has outcome equal to inactive

====

Molecular target: Ferritin light chain (Equus caballus) (UniProt P02791)
Experiment: qHTS Validation Assay for Identification of Novel General Anesthetics (AID 2323)
Settings: horse apoferritin, anesthetic-site fluorescent probe displacement; series mostly up to 76.9 µM
Records with an inconclusive call do not appear. Active and inactive are the calls of the source. Calls follow the shape of the dose curve; as a rule, active = well fitted curve in the direction sought with a large enough effect; inconclusive = small, poorly fitted or top-dose-only effect, or another doubt; inactive = no such curve, though single readings can be large or run the other way.

COMPOUND	outcome
O=c1cc(-c2ccccc2)[nH]c2nc(Cl)ccc12	inactive
COC(=O)C(N)Cc1ccc(Cl)cc1 (centres undefined)	inactive
O=c1onc2n1-c1cc(Br)ccc1OC2	inactive
CCCc1c(-c2ccc(O)cc2)nn(-c2ccc(O)cc2)c1-c1ccc(O)cc1	inactive

====

Assay: qHTS Validation Assay to Find Inhibitors of Chronic Active B-Cell Receptor Signaling (AID 485345)
Conditions: ABC-DLBCL cells, chronic BCR signaling reporter, CBG luciferase; series mostly up to 46.1 µM
Results filed as inconclusive are left out. The source made the active and inactive calls. Calls come from the whole dose curve; as a rule, active = well fitted curve in the direction sought with a large enough effect in the main read-out, with a control signal flat (not every such curve was filed as active); inconclusive = small, poorly fitted or top-dose-only effect, or effect the other way, or a change in a side signal; inactive = no such curve, though single readings can be large or run the other way.
ENDPOINT: outcome

Please review the following examples before continuing.
COMPOUND	RECORDED MEASUREMENT
CC(=O)/C(C)=N/O	inactive
COc1ccc2c(c1)c(CC(=O)O)c(C)n2C(=O)c1ccccc1	inactive
NC1(C(=O)O)CCc2cc(C(=O)O)ccc21 (stereo not drawn)	inactive
CCOC(=O)C12CC1/C(=N/O)c1ccccc1O2 (stereo not drawn)	inactive
COc1ccc(CCN(C)CCc2ccc(OC)c(OC)c2)cc1OC	inactive

Query compound follows.
Per the records, this compound ( `C=CC[C@H](N)C(=O)O` ) has outcome equal to inactive

====

Target: Glutathione peroxidase 1 (Homo sapiens)
Assay: Primary qHTS Assay for Inhibitors of Recombinant Selenoprotein Glutathione Peroxidase 1 (GPX1) (AID 1845191); note: nearly all actives have a fitted effect of over 65% in size
Conditions: recombinant GPX1, GR-coupled NADPH fluorescence, 15 min; series mostly up to 48.8 µM
Description: Assay Provider: Elias S.J. Arner MD PhD. Department of Medical Biochemistry and Biophysics Karolinska Institutet, Solna, Stockholm, Sweden […] 5; Detection; Fluorescence; ViewLux microplate reader, excitation 340 nm and emission 450 nm. […] 7; Detection; Fluorescence; ViewLux microplate reader, excitation 340 nm and emission 450 nm. […] 5. Initial fluorescence readout (t=0) at 340/450 nm was measured using a ViewLux multimodal detector (PerkinElmer, Waltham, MA). […]
Records with an inconclusive call do not appear. Calls of active or inactive are those of the source. Calls come from the whole dose curve; as a rule, active = well fitted inhibition curve with a large enough effect; inconclusive = small, poorly fitted or top-dose-only effect; inactive = flat fitted curve, though single readings scatter.
ENDPOINT: outcome

Please review the following examples before continuing.
MOLECULE	outcome
Cc1ccc2c(c1)C(N1CCN(C)CC1)=Nc1cccnc1N2	inactive
Cc1nc(N=Nc2cc(S(=O)(=O)O)c3cc([N+](=O)[O-])cc(S(=O)(=O)O)c3c2)c(COP(=O)(O)O)c(C=O)c1O	inactive
CCCCCCCCCCCCCCSCC(=O)O	inactive
O=C(O)/C=C/c1cnc[nH]1	inactive
NCCCNCCCCNCCCN	inactive
COC(=O)C(C)(N)Cc1ccc(O)cc1 (configuration not stated)	inactive
O=[N+]([O-])c1cccc2c(Br)[nH]nc12	inactive
CCCc1c(OCCCOc2ccc(OCC(=O)O)cc2)ccc(C(C)=O)c1O	inactive
O=C(O)C1=CCNCC1	inactive
C[C@H]1CC2C3CCC4=CC(=O)C=C[C@]4(C)[C@@]3(Cl)[C@@H](O)C[C@]2(C)[C@@]1(O)C(=O)CO (some centres not stated)	inactive

Lab entry: Glutathione peroxidase 1 (Homo sapiens) assay, molecule `COc1cc(/C=C(\C#N)C(=O)Nc2nnc(C(F)(F)F)s2)ccc1OCc1ccc(C(F)(F)F)cc1C(F)(F)F` , outcome = inactive

Lab entry: Glutathione peroxidase 1 (Homo sapiens) assay, molecule `COc1ccccc1N1CCN(CCCCNC(=O)c2ccc3ccccc3c2)CC1` , outcome = inactive

====

Experiment: Quantitative high throughput screen for delayed death inhibitors of the malarial parasite plastid, 96 hour incubation (AID 488745); note: nearly all actives have a fitted effect of over 70% in size; note: potency is the fitted concentration of half-maximal effect
Conditions: Plasmodium falciparum growth; series mostly up to 28.7 µM
Inconclusive results are not listed. Calls of active or inactive are those of the source. Calls come from the whole dose curve; as a rule, active = well fitted inhibition curve with a large enough effect; inconclusive = small, poorly fitted or top-dose-only effect, or effect the other way; inactive = no such curve, though single readings can be large or run the other way.
ENDPOINT: Potency

Please review the following examples before continuing.
COMPOUND	Potency
O=c1[nH]c(=O)c2nc3ccccc3nc2[nH]1	inactive
CSC(=N)N	inactive
C=CCN1CCc2c(cc(O)c(O)c2Br)[C@@H](c2ccccc2)C1	inactive
CC(=O)/C(C)=N/O	inactive
CCCCCCCC/C=C\CCCCCCCC(=O)NCCc1ccc(O)c(O)c1	14.7 µM (active)
NC(Cc1cccc(-c2ccccc2CP(=O)(O)O)c1)C(=O)O (stereo not drawn)	inactive

Per the records, this compound ( `Cc1nc(N=Nc2cc(S(=O)(=O)O)c3cc([N+](=O)[O-])cc(S(=O)(=O)O)c3c2)c(COP(=O)(O)O)c(C=O)c1O` ) has Potency equal to inactive

Per the records, this compound ( `O=C(O)C1=CC(=C(c2ccc(O)c(C(=O)O)c2)c2ccc(O)c(C(=O)O)c2)C=CC1=O` ) has Potency equal to inactive

Per the records, this compound ( NC1(C(=O)O)CCc2cc(C(=O)O)ccc21 (stereo not drawn) ) has Potency equal to inactive

Per the records, this compound ( `COc1cc(CC(=O)O)ccc1O` ) has Potency equal to inactive

Per the records, this compound ( `Cc1nc(N=Nc2ccc(S(=O)(=O)O)cc2S(=O)(=O)O)c(COP(=O)(O)O)c(C=O)c1O` ) has Potency equal to inactive

Per the records, this compound ( `CCCC[C@@]1(C2CCCC2)Cc2cc(OCC(=O)O)c(Cl)c(Cl)c2C1=O` ) has Potency equal to inactive

====

System: Zika virus NS2B-NS3 protease (unlinked)
Experiment: Optimization of GU AMC qHTS for Zika virus inhibitors: Unlinked NS2B-NS3 protease assay (AID 1347151); note: nearly all actives have a fitted effect of over 80% in size
Conditions: recombinant ZIKV NS2B-NS3 protease, fluorogenic AMC substrate; series mostly up to 52.5 µM
Source text: Avindra Nath, Ph.D., National Institute of Neurological Disorders and Stroke (NINDS), Bethesda, MD Radhakrishnan Padmanabhan, Ph.D., Georgetown University (GU), Washington D.C. Zika Virus causes congenital defects, including microcephaly and is associated with Guillain-Barre syndrome, eningoencephalitis and myelitis in infected adult. […]
Results filed as inconclusive are left out. The source made the active and inactive calls. Calls come from the whole dose curve; as a rule, active = well fitted inhibition curve with a large enough effect; inconclusive = small, poorly fitted or top-dose-only effect; inactive = no such curve, though single readings can be large or run the other way.
Respond only with the outcome that fits, drawn from t = active, f = inactive

Some solved entries appear below for comparison.
COMPOUND	CAT
N=C(N)c1ccc(N)cc1	f
CC1CCN(CC[C@H]2CCCN2S(=O)(=O)c2cccc(O)c2)CC1	f
NCC(O)C1CCCCCCC1 (stereo not given)	f
COc1ccccc1N1CCN(CCN(C(=O)c2ccc(F)cc2)c2ccccn2)CC1	f

Problem: Status in this test for `S=C(S)N1CCCC1` ?
Result: f

Problem: Status in this test for `Fc1ccc(CN(C2=NCCN2)c2c(Cl)cccc2Cl)cc1` ?
Result: f

Problem: Status in this test for O[Si](CCCN1CCCCC1)(c1ccc(F)cc1)C1CCCCC1 (stereo not given) ?
Result: f

Problem: Status in this test for `O=c1ccc2c(OCCCCc3ccccc3)c3ccoc3cc2o1` ?
Result: t

Problem: Status in this test for `NCCNS(=O)(=O)c1cccc2c(Cl)cccc12` ?
Result: f

Problem: Status in this test for `N=C(N)SCCN` ?
Result: f

Problem: Status in this test for `O=C1Cc2c([nH]c3ccc(Br)cc23)-c2ccccc2N1` ?
Result: f

Problem: Status in this test for `CCCCCCCCCCC/C=C\C(C)(C)/C=C\CCCC(=O)O` ?
Result: t

Problem: Status in this test for C=CCN1CCc2cc(O)c(O)cc2C(c2ccccc2)C1 (stereo not given) ?
Result: f

Problem: Status in this test for NCC(O)(CS(=O)(=O)O)c1ccc(Cl)cc1 (stereo not given) ?
Result: f

Problem: Status in this test for `Cn1c(=O)[nH]c2ncn(C)c2c1=O` ?
Result: f

Problem: Status in this test for `O=c1cc(-c2ccccc2F)[nH]c2cc3c(cc12)OCO3` ?
Result: t

Problem: Status in this test for `O=C(c1ccc2c(c1)OCCO2)N1CCCCC1` ?
Result: f

Problem: Status in this test for `CNCCc1cnc(CCC(c2ccccc2)c2ccccc2)[nH]1` ?
Result: f

Problem: Status in this test for CC(C)C[C@H](NC(=O)C1OC1C(=O)O)C(=O)NCCCCN=C(N)N (stereo not given in full) ?
Result: f

Problem: Status in this test for `CC(=O)N[C@@H](Cc1c[nH]c2ccccc12)C(=O)OCc1cc(C(F)(F)F)cc(C(F)(F)F)c1` ?
Result: f

Problem: Status in this test for `COc1ccc(NC(=O)c2ccc(-c3ccc(-c4noc(C)n4)cc3C)cc2)cc1N1CCN(C)CC1` ?
Result: f

Problem: Status in this test for C#CC(N)CCC(=O)O (stereo not given) ?
Result: f
